Molecular target: T1, CRBN, Q96SW2;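 also: pooled lentiviral library of zinc finger degron-EGFP fusions in mCherry-positive Jurkat cells, FACS-sorted after compound exposure, with degron abundance counted by next-generation sequencing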
T1 chain: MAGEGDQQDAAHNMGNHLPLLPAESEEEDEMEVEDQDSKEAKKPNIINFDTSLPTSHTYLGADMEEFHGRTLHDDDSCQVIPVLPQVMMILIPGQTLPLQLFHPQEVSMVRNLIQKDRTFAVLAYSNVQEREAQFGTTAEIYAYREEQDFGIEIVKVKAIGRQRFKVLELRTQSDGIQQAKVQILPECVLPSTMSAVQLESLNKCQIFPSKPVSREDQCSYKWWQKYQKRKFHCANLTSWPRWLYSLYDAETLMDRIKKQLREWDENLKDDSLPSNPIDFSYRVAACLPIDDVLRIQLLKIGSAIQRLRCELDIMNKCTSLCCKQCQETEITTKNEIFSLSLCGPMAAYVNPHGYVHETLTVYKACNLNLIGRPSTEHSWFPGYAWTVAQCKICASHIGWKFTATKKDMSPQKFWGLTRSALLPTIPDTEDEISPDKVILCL
Assay: log2 fold change of degron read counts, EGFP-low vs EGFP+ sorted cells (limma voom), compound-induced degradation; higher = more compound-induced degradation of the degron-EGFP fusion; degrons are variants of IKZF1/3 zinc finger 2; compound dose not given here
Settings: Jurkat; 18 h; compound: compound 19 (5-tert-butyl-thalidomide)
Whole data set: some 8,300 sequences, median “log2 fold change of degron read counts, EGFP-low vs EGFP+ sorted cells (limma voom), compound-induced degradation” near -1.1, cut for the highest 2% near 3.2. Many of the other results were omitted from the sample, so the highest values are more common in it than they were.
log2 fold change of degron read counts overview

ORDERED_RESIDUES: FNCEVCGAEFTQKGNLLRHIKL [46F_47N_49E_50V_52G_53A_54E_55F_67L_, Q9UKT9]
log2 fold change of degron read counts: 0.9
//
ORDERED_RESIDUES: FFCNQCGRTFTQKGNLLRHIKL [46F_47F_49N_50Q_52G_53R_54T_55F_67L_, Q9UKT9]
log2 fold change of degron read counts: -2.31
//
ORDERED_RESIDUES: LHCPICGFWCTQKGNLLRHIKL [46L_47H_49P_50I_52G_53F_54W_55C_67L_, Q9UKT9]
log2 fold change of degron read counts: 1.34

Request: I would be grateful if you could share the reported log2 fold change of degron read counts for FTCEVCGAEFTQKGNLLRHIKL [46F_47T_49E_50V_52G_53A_54E_55F_67L_, Q9UKT9] .
Response: -0.301

Request: Please report the recorded log2 fold change of degron read counts for FKCEVCGAEFTQKGNLLRHIKL [46F_47K_49E_50V_52G_53A_54E_55F_67L_, Q9UKT9] .
Response: -1.42

Request: Would you kindly share the measured log2 fold change of degron read counts for FQCNICGANFTQKGNLLRHIKL [46F_47Q_49N_50I_52G_53A_54N_55F_67L_, Q9UKT9] ?
Response: -0.813

Request: Given the entry FVCPVCGAEFTQKGNLLRHIKL [46F_47V_49P_50V_52G_53A_54E_55F_67L_, Q9UKT9] , report its measured log2 fold change of degron read counts.
Response: -0.775

Request: Endpoint output: log2 fold change of degron read counts of FYCEICGRMFTQKGNLLRHIKL [46F_47Y_49E_50I_52G_53R_54M_55F_67L_, Q9UKT9] . Value?
Response: 1.51

Request: What does the record list as log2 fold change of degron read counts for LECPICGFVCTQKGNLLRHIKL [46L_47E_49P_50I_52G_53F_54V_55C_67L_, Q9UKT9] ?
Response: -0.508

Request: Need log2 fold change of degron read counts, item FQCNQCGRQFTQKGNLLRHIKL [46F_47Q_49N_50Q_52G_53R_54Q_55F_67L_, Q9UKT9]
Response: -3.25

Request: Return reported log2 fold change of degron read counts; argument: FGCEICGREFTQKGNLLRHIKL [46F_47G_49E_50I_52G_53R_54E_55F_67L_, Q9UKT9]
Response: -2.14

Request: log2 fold change of degron read counts for FQCPVCGAEFTQKGNLLRHIKL [46F_47Q_49P_50V_52G_53A_54E_55F_67L_, Q9UKT9] ?
Response: 0.475

Request: Item under review: FMCDVCGATFTQKGNLLRHIKL [46F_47M_49D_50V_52G_53A_54T_55F_67L_, Q9UKT9] . Reported log2 fold change of degron read counts?
Response: -2.12

Request: GET /values?readout=log2 fold change of degron read counts&item= FFCEVCGAEFTQKGNLLRHIKL [46F_47F_49E_50V_52G_53A_54E_55F_67L_, Q9UKT9]
Response: 3.01

Request: # get_value(readout='log2 fold change of degron read counts', item= FECPICGHSFTQKGNLLRHIKL [46F_47E_49P_50I_52G_53H_54S_55F_67L_, Q9UKT9] )
Response: -2.78
